Test system: MS2 coat protein
assay protocol: apparent KD of MS2 coat protein; higher = weaker reporter binding
condition description: Eterna round: R107; input ligand: theophylline 2 mM
Listed here are sequences together with their documented apparent KD of MS2 coat protein.
Put down the number, then write its unit next to it.

Example entries begin here.
INSERT INTO assay_data (seq_string, measured_endpoint, experimental_value) VALUES
  ('CGCGAGACGGCGGCCGCCACUUGUUGUUGGAAACUCGAGUUACAUGAGGAUCACCCAUGUCCUUAAAGGACCGGGCCGUAAGUAA [theeternabot_sameState_MS2_Trp_B_13]', 'apparent KD of MS2 coat protein', '219 nM'),
  ('AUUGUGAAGUCGGCCGCCACUGCAUAGUUUAACCUCUUUUAACAUGAGGAUCACCCAUGUAAUGACAGGACCGGGACAAUAGUAA [JR_SSTryptoB_Sub022]', 'apparent KD of MS2 coat protein', '79.7 nM'),
  ('GGGUGGUAGGCGGCCGCCACUGAUUUUUAUUUAUAGAUGACAUGAGGAUCACCCAUGUUUAUAUGCAGGACCGGGCCUGUUGUGG [aaaQ]', 'apparent KD of MS2 coat protein', '17.6 nM');

# input Identify the measured apparent KD of MS2 coat protein of AGUACAUGAGGAUCACCCAUGUAUCGGUACCGAGGACCGGUACGGCCGCCACUCGCAGGACAUGAGGAUCACCCAUGUGCAGCCG [SSTA DOUBLE!!! :-D #10] for MS2 coat protein.
# output 43.8 nM

# input Note, next up: ACAUGAGGAUCACCCAUGUAUUACCGGGAAGGAGCGCGUAAGGACGCAGGUAGGUCGCUCGGCGUCGUGCCGGAAGGCACGACGA [#1 Same State - Arginine A Attempt #22 (HarryS)]
# output 15.6 nM
